Assay: Short-term room temperature stability of Pool 3 mixed with Hiltonol (RP-HPLC)
Format: physicochemical
Details: Pool 3 + Hiltonol, 6 Hours RT
MEASUREMENT_KIND: Total Peak

>  <SUBSTANCE>
H-AHRQGEKQHLLPVFSRLALRLPWRHSVQL-OH [CS6941]

>  <REPORTED_RESULT>
7158.29

$$$$
>  <SUBSTANCE>
H-VAGLAASGLHGSAWLVPGEQPVSGPHHGKQ-OH [CS6931]

>  <REPORTED_RESULT>
9699.18

$$$$
>  <SUBSTANCE>
H-KLAWRGRISSSGCPSMTSPPSPMFGMTLHT-OH [CS6919]

>  <REPORTED_RESULT>
9392.79

$$$$
>  <SUBSTANCE>
H-SKRGVGAKTLLLPDPFLFWPCLEGTRRSL-OH [CS6934]

>  <REPORTED_RESULT>
6489.62

$$$$
>  <SUBSTANCE>
H-AESAQRQGPNGGGEQSANEF-OH [CS7416]

>  <REPORTED_RESULT>
6330.31

$$$$
